All values here come from paper PMC9538944.

Assay: In vivo bioconcentration test OECD TG 305, trout
Set-up: species or system Oncorhynchus mykiss
Conditions: rainbow trout (Oncorhynchus mykiss), in vivo, rainbow trout, day 7 (uptake); BaP background corrected; read-out: Cf data, concentration measured in individual fish
Procedure: In vivo BCF values for MXC and BaP in carp and trout were determined in bioconcentration tests with both species in accordance to OECD TG 305 ([OECD, 2012]). […] The total lipid content of the fish was measured individually by gravimetric analysis according to [Smedes (1999)]. […] MXC in the organic phase of samples from the in vitro incubations and in DCM extracts of water samples from the in vivo bioconcentration tests were analyzed by gas chromatography-mass spectrometry (GC-MS). […]
ASSAY ENDPOINT: concentration at 7 d (ng/g)
Output spec: scalar in ng/g, unitless text.

Exercise: Record request: concentration at 7 d value, item COc1ccc(C(c2ccc(OC)cc2)C(Cl)(Cl)Cl)cc1 [MXC, methoxychlor]
Solution: 25.9

---

assay: In vivo bioconcentration test OECD TG 305, carp; set-up: species or system Cyprinus carpio; conditions: common carp (Cyprinus carpio), in vivo, common carp, day 44 (depuration); BaP background corrected; read-out: Cf data, concentration measured in individual fish
ASSAY ENDPOINT: concentration at 44 d (ng/g)
Answer in ng/g, number only, no unit symbol.

Exercise: Look up concentration at 44 d for this molecule: COc1ccc(C(c2ccc(OC)cc2)C(Cl)(Cl)Cl)cc1
Solution: 0.819

---

assay: In vivo bioconcentration test OECD TG 305, trout; design: species or system Oncorhynchus mykiss; details: rainbow trout (Oncorhynchus mykiss), in vivo, rainbow trout, day 35 (end of uptake); read-out: Mean Cf
Recorded concentration at 35 d values for a group of compounds are listed next.

COMPOUND: c1ccc2c(c1)cc1ccc3cccc4ccc2c1c34 [BaP, benzo[a]pyrene]
concentration at 35 d: 0.116 ng/g

Kindly consider the entry below.
Exercise: Value lookup for concentration at 35 d; key = COc1ccc(C(c2ccc(OC)cc2)C(Cl)(Cl)Cl)cc1
Solution: 46.4 ng/g

---

assay: In vivo bioconcentration test OECD TG 305, carp; parameters: species or system Cyprinus carpio; conditions: common carp (Cyprinus carpio), in vivo, common carp, day 40 (depuration); BaP background corrected; read-out: Cf data, concentration measured in individual fish
ASSAY ENDPOINT: concentration at 40 d

Exercise: I'd like to know its concentration at 40 d. The molecule in question is COc1ccc(C(c2ccc(OC)cc2)C(Cl)(Cl)Cl)cc1 [MXC, methoxychlor]
Solution: 3.02 ng/g

---

experiment: In vivo bioconcentration test OECD TG 305, trout; parameters: species or system Oncorhynchus mykiss; settings: rainbow trout (Oncorhynchus mykiss), in vivo, rainbow trout, day 28 (uptake); read-out: Mean Cf
ASSAY ENDPOINT: concentration at 28 d
Answer with the number, then the unit.

COMPOUND: COc1ccc(C(c2ccc(OC)cc2)C(Cl)(Cl)Cl)cc1 [MXC, methoxychlor]
concentration at 28 d: 41.9 ng/g

Now consider the entry below.
Exercise: Need concentration at 28 d, item c1ccc2c(c1)cc1ccc3cccc4ccc2c1c34 [BaP, benzo[a]pyrene]
Solution: 0.121 ng/g

---

assay: In vivo bioconcentration test OECD TG 305, trout; parameters: species or system Oncorhynchus mykiss; conditions: rainbow trout (Oncorhynchus mykiss), in vivo, Cf data, concentration measured in individual fish
ASSAY ENDPOINT: concentration at 14 d (ng/g)
The reply should contain only the number, in ng/g.

Exercise: GET /values?readout=concentration at 14 d&item= c1ccc2c(c1)cc1ccc3cccc4ccc2c1c34 [BaP, benzo[a]pyrene]
Solution: 0.079

---

test: In vivo bioconcentration test OECD TG 305, trout; parameters: species or system Oncorhynchus mykiss; conditions: rainbow trout (Oncorhynchus mykiss), in vivo, rainbow trout, day 56 (depuration), outlier excluded; read-out: Mean Cf
ASSAY ENDPOINT: concentration at 56 d (ng/g)
Give the value in ng/g but do not write ng/g after it.

Exercise: Data request, read-out concentration at 56 d, for COc1ccc(C(c2ccc(OC)cc2)C(Cl)(Cl)Cl)cc1
Solution: 1.75

---

assay: In vivo bioconcentration test OECD TG 305, carp; design: species or system Cyprinus carpio; conditions: common carp (Cyprinus carpio), in vivo, common carp, day 35 (end of uptake); BaP background corrected; read-out: Cf data, concentration measured in individual fish
ASSAY ENDPOINT: concentration at 35 d (ng/g)
The response must be a number in ng/g with no trailing unit.

Exercise: Dear colleague, I am looking for the recorded concentration at 35 d of the following compound: COc1ccc(C(c2ccc(OC)cc2)C(Cl)(Cl)Cl)cc1
Solution: 8.35

---

assay: In vivo bioconcentration test OECD TG 305, carp; parameters: species or system Cyprinus carpio; settings: common carp (Cyprinus carpio), in vivo, common carp, day 44 (depuration); read-out: Mean Cf
ASSAY ENDPOINT: concentration at 44 d (ng/g)
Field format: number, assumed ng/g, no unit text.

COMPOUND: c1ccc2c(c1)cc1ccc3cccc4ccc2c1c34 [BaP, benzo[a]pyrene]
concentration at 44 d, ng/g: 0.002

Exercise: Sample COc1ccc(C(c2ccc(OC)cc2)C(Cl)(Cl)Cl)cc1 — what was its concentration at 44 d?
Solution: 0.757

---

Assay: In vivo bioconcentration test OECD TG 305, carp
Parameters: species or system Cyprinus carpio
Conditions: common carp (Cyprinus carpio), in vivo, common carp, day 14 (uptake); read-out: Mean Cf
Experimental: In vivo BCF values for MXC and BaP in carp and trout were determined in bioconcentration tests with both species in accordance to OECD TG 305 ([OECD, 2012]). […] The total lipid content of the fish was measured individually by gravimetric analysis according to [Smedes (1999)]. […] MXC in the organic phase of samples from the in vitro incubations and in DCM extracts of water samples from the in vivo bioconcentration tests were analyzed by gas chromatography-mass spectrometry (GC-MS). […]
ASSAY ENDPOINT: concentration at 14 d (ng/g)
The response must be a number in ng/g with no trailing unit.

MOLECULE: COc1ccc(C(c2ccc(OC)cc2)C(Cl)(Cl)Cl)cc1 [MXC, methoxychlor]
concentration at 14 d (ng/g): 9.88

Exercise: Record request: concentration at 14 d value, item c1ccc2c(c1)cc1ccc3cccc4ccc2c1c34 [BaP, benzo[a]pyrene]
Solution: 0.172

---

assay: In vivo bioconcentration test OECD TG 305, trout; parameters: species or system Oncorhynchus mykiss; conditions: rainbow trout (Oncorhynchus mykiss), in vivo, rainbow trout, day 70 (end of depuration); read-out: Mean Cf
ASSAY ENDPOINT: concentration at 70 d (ng/g)
All answers are understood in ng/g, so give the number only.

Exercise: Which measured concentration at 70 d value corresponds to COc1ccc(C(c2ccc(OC)cc2)C(Cl)(Cl)Cl)cc1 ?
Solution: 1.01

---

test: In vivo bioconcentration test OECD TG 305, carp; design: species or system Cyprinus carpio; conditions: common carp (Cyprinus carpio), in vivo, common carp, day 40 (depuration); read-out: Mean Cf
Below: a set of entries, each annotated with reported concentration at 40 d.

MOLECULE: c1ccc2c(c1)cc1ccc3cccc4ccc2c1c34 [BaP, benzo[a]pyrene]
concentration at 40 d: 0.013 ng/g

Now look at this one.
Exercise: What value of measured concentration at 40 d is listed for COc1ccc(C(c2ccc(OC)cc2)C(Cl)(Cl)Cl)cc1 ?
Solution: 2.4 ng/g

---

test: In vivo bioconcentration test OECD TG 305, carp; parameters: species or system Cyprinus carpio; conditions: common carp (Cyprinus carpio), in vivo, common carp, day 28 (uptake); read-out: Mean Cf
ASSAY ENDPOINT: concentration at 28 d (ng/g)
State the answer as a number, implicitly in ng/g.

Exercise: Which value of concentration at 28 d has been reported for COc1ccc(C(c2ccc(OC)cc2)C(Cl)(Cl)Cl)cc1 in the records?
Solution: 6.94

Exercise: Lookup c1ccc2c(c1)cc1ccc3cccc4ccc2c1c34 [BaP, benzo[a]pyrene]
Solution: 0.148

---

experiment: In vivo bioconcentration test OECD TG 305, carp; set-up: species or system Cyprinus carpio; details: common carp (Cyprinus carpio), in vivo, common carp, day 14 (uptake); BaP background corrected; read-out: Cf data, concentration measured in individual fish
ASSAY ENDPOINT: concentration at 14 d

Exercise: What measured concentration at 14 d goes with COc1ccc(C(c2ccc(OC)cc2)C(Cl)(Cl)Cl)cc1 ?
Solution: 11.4 ng/g

---

experiment: In vivo bioconcentration test OECD TG 305, trout; set-up: species or system Oncorhynchus mykiss; conditions: rainbow trout (Oncorhynchus mykiss), in vivo, rainbow trout, day 40 (depuration); BaP background corrected; read-out: Cf data, concentration measured in individual fish
ASSAY ENDPOINT: concentration at 40 d (ng/g)
Numbers only; they are read as ng/g.

Exercise: Bench note: what concentration at 40 d did COc1ccc(C(c2ccc(OC)cc2)C(Cl)(Cl)Cl)cc1 show?
Solution: 9.62
